Assay: Singlet oxygen quantum yield
Type: physicochemical
Settings: relative to rose bengal (ΦΔ = 0.76)
Listed here: items and their measured ΦΔ (singlet oxygen quantum yield).

{"smiles": "CCN(CC)c1ccc2c(-c3ccnc(-c4cc(C)ccn4)c3)c3ccc(=[N+](CC)CC)cc-3oc2c1.F[P-](F)(F)(F)(F)F.F[P-](F)(F)(F)(F)F.c1ccc(-c2cccc[c]2[Rh+][c]2ccccc2-c2ccccn2)nc1", "ΦΔ (singlet oxygen quantum yield)": 0.37}
{"smiles": "CCN(CC)c1ccc2c(-c3ccnc(-c4cc(C)ccn4)c3)c3ccc(=[N+](CC)CC)cc-3oc2c1.F[P-](F)(F)(F)(F)F.[C](#Cc1ccccc1)[Pt][C]#Cc1ccccc1", "ΦΔ (singlet oxygen quantum yield)": 0.57}
{"smiles": "CCN(CC)c1ccc2c(-c3ccnc(-c4cc(C)ccn4)c3)c3ccc(=[N+](CC)CC)cc-3oc2c1", "ΦΔ (singlet oxygen quantum yield)": 0.08}
{"smiles": "CCN(CC)c1ccc2c(-c3ccnc(-c4cc(C)ccn4)c3)c3ccc(=[N+](CC)CC)cc-3oc2c1.F[P-](F)(F)(F)(F)F.F[P-](F)(F)(F)(F)F.c1ccc(-c2cccc[c]2[Ir+][c]2ccccc2-c2ccccn2)nc1", "ΦΔ (singlet oxygen quantum yield)": 0.62}

---

Assay: Steady-state emission spectra and absolute luminescence quantum yield
Assay type: physicochemical
Settings: absolute luminescence quantum yield measured by HAMAMATSU-C11347
measured-attribute: Φlum

{"smiles": "CCN(CC)c1ccc2c(-c3ccnc(-c4cc(C)ccn4)c3)c3ccc(=[N+](CC)CC)cc-3oc2c1.F[P-](F)(F)(F)(F)F.[C](#Cc1ccccc1)[Pt][C]#Cc1ccccc1", "reported-result": 0.062}
{"smiles": "CCN(CC)c1ccc2c(-c3ccnc(-c4cc(C)ccn4)c3)c3ccc(=[N+](CC)CC)cc-3oc2c1", "reported-result": 0.29}
{"smiles": "CCN(CC)c1ccc2c(-c3ccnc(-c4cc(C)ccn4)c3)c3ccc(=[N+](CC)CC)cc-3oc2c1.F[P-](F)(F)(F)(F)F.F[P-](F)(F)(F)(F)F.c1ccc(-c2cccc[c]2[Rh+][c]2ccccc2-c2ccccn2)nc1", "reported-result": 0.23}
{"smiles": "CCN(CC)c1ccc2c(-c3ccnc(-c4cc(C)ccn4)c3)c3ccc(=[N+](CC)CC)cc-3oc2c1.F[P-](F)(F)(F)(F)F.F[P-](F)(F)(F)(F)F.c1ccc(-c2cccc[c]2[Ir+][c]2ccccc2-c2ccccn2)nc1", "reported-result": 0.014}

---

Experiment: UV/Vis absorption spectra
Type: physicochemical
Details: molar extinction coefficient at the absorption maxima; values × 10^4

{"molecule": "CCN(CC)c1ccc2c(-c3ccnc(-c4cc(C)ccn4)c3)c3ccc(=[N+](CC)CC)cc-3oc2c1.F[P-](F)(F)(F)(F)F.[C](#Cc1ccccc1)[Pt][C]#Cc1ccccc1 [Pt-Rho]", "ε × 10^4": "7.96 M^−1 cm^−1"}
{"molecule": "CCN(CC)c1ccc2c(-c3ccnc(-c4cc(C)ccn4)c3)c3ccc(=[N+](CC)CC)cc-3oc2c1.F[P-](F)(F)(F)(F)F.F[P-](F)(F)(F)(F)F.c1ccc(-c2cccc[c]2[Rh+][c]2ccccc2-c2ccccn2)nc1 [Rh-Rho]", "ε × 10^4": "8.24 M^−1 cm^−1"}
{"molecule": "CCN(CC)c1ccc2c(-c3ccnc(-c4cc(C)ccn4)c3)c3ccc(=[N+](CC)CC)cc-3oc2c1.F[P-](F)(F)(F)(F)F.F[P-](F)(F)(F)(F)F.c1ccc(-c2cccc[c]2[Ir+][c]2ccccc2-c2ccccn2)nc1 [Ir-Rho]", "ε × 10^4": "8.75 M^−1 cm^−1"}
{"molecule": "CCN(CC)c1ccc2c(-c3ccnc(-c4cc(C)ccn4)c3)c3ccc(=[N+](CC)CC)cc-3oc2c1 [bpy-Rho]", "ε × 10^4": "9.86 M^−1 cm^−1"}

---

Listed here: items and their measured λem.
Assay: Steady-state emission spectra and absolute luminescence quantum yield
Format: physicochemical
Details: Conc. = 1.0 × 10^−6M in MeOH

{"smiles": "CCN(CC)c1ccc2c(-c3ccnc(-c4cc(C)ccn4)c3)c3ccc(=[N+](CC)CC)cc-3oc2c1.F[P-](F)(F)(F)(F)F.F[P-](F)(F)(F)(F)F.c1ccc(-c2cccc[c]2[Rh+][c]2ccccc2-c2ccccn2)nc1", "λem": "629 nm"}
{"smiles": "CCN(CC)c1ccc2c(-c3ccnc(-c4cc(C)ccn4)c3)c3ccc(=[N+](CC)CC)cc-3oc2c1.F[P-](F)(F)(F)(F)F.F[P-](F)(F)(F)(F)F.c1ccc(-c2cccc[c]2[Ir+][c]2ccccc2-c2ccccn2)nc1", "λem": "629 nm"}
{"smiles": "CCN(CC)c1ccc2c(-c3ccnc(-c4cc(C)ccn4)c3)c3ccc(=[N+](CC)CC)cc-3oc2c1", "λem": "598 nm"}
{"smiles": "CCN(CC)c1ccc2c(-c3ccnc(-c4cc(C)ccn4)c3)c3ccc(=[N+](CC)CC)cc-3oc2c1.F[P-](F)(F)(F)(F)F.[C](#Cc1ccccc1)[Pt][C]#Cc1ccccc1", "λem": "631 nm"}

---

Test: physchem

{"compound": "CCN(CC)c1ccc2c(-c3ccnc(-c4cc(C)ccn4)c3)c3ccc(=[N+](CC)CC)cc-3oc2c1 [bpy-Rho]", "logP": 0.49}

---

Assay: Singlet oxygen emission at about 1270 nm
Assay type: physicochemical
Conditions: in CH3CN

{"smiles": "CCN(CC)c1ccc2c(-c3ccnc(-c4cc(C)ccn4)c3)c3ccc(=[N+](CC)CC)cc-3oc2c1.F[P-](F)(F)(F)(F)F.[C](#Cc1ccccc1)[Pt][C]#Cc1ccccc1", "1O2 emission at about 1270 nm": "Remarkable"}
{"smiles": "CCN(CC)c1ccc2c(-c3ccnc(-c4cc(C)ccn4)c3)c3ccc(=[N+](CC)CC)cc-3oc2c1", "1O2 emission at about 1270 nm": "not"}
{"smiles": "CCN(CC)c1ccc2c(-c3ccnc(-c4cc(C)ccn4)c3)c3ccc(=[N+](CC)CC)cc-3oc2c1.F[P-](F)(F)(F)(F)F.F[P-](F)(F)(F)(F)F.c1ccc(-c2cccc[c]2[Ir+][c]2ccccc2-c2ccccn2)nc1", "1O2 emission at about 1270 nm": "Remarkable"}
{"smiles": "CCN(CC)c1ccc2c(-c3ccnc(-c4cc(C)ccn4)c3)c3ccc(=[N+](CC)CC)cc-3oc2c1.F[P-](F)(F)(F)(F)F.F[P-](F)(F)(F)(F)F.c1ccc(-c2cccc[c]2[Rh+][c]2ccccc2-c2ccccn2)nc1", "1O2 emission at about 1270 nm": "not"}

---

Assay: UV/Vis absorption spectra
Type: physicochemical
Conditions: absorption maximum; in CH3CN
measured-attribute: λabs

{"smiles": "CCN(CC)c1ccc2c(-c3ccnc(-c4cc(C)ccn4)c3)c3ccc(=[N+](CC)CC)cc-3oc2c1.F[P-](F)(F)(F)(F)F.F[P-](F)(F)(F)(F)F.c1ccc(-c2cccc[c]2[Ir+][c]2ccccc2-c2ccccn2)nc1", "measured-attribute": "λabs", "reported-result": "575 nm"}
{"smiles": "CCN(CC)c1ccc2c(-c3ccnc(-c4cc(C)ccn4)c3)c3ccc(=[N+](CC)CC)cc-3oc2c1.F[P-](F)(F)(F)(F)F.[C](#Cc1ccccc1)[Pt][C]#Cc1ccccc1", "measured-attribute": "λabs", "reported-result": "574 nm"}
{"smiles": "CCN(CC)c1ccc2c(-c3ccnc(-c4cc(C)ccn4)c3)c3ccc(=[N+](CC)CC)cc-3oc2c1", "measured-attribute": "λabs", "reported-result": "564 nm"}
{"smiles": "CCN(CC)c1ccc2c(-c3ccnc(-c4cc(C)ccn4)c3)c3ccc(=[N+](CC)CC)cc-3oc2c1.F[P-](F)(F)(F)(F)F.F[P-](F)(F)(F)(F)F.c1ccc(-c2cccc[c]2[Rh+][c]2ccccc2-c2ccccn2)nc1", "measured-attribute": "λabs", "reported-result": "574 nm"}
